# test-details: chemical genetic growth profiling, strain panel (AID 1159580);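 note: tested at 20 µM; growth read once vehicle control cultures reached saturation at 30 °C; 1 = growth at the plate median or of vehicle wells; lower values mean less growth of the strain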
# measurement-setup: S. cerevisiae deletion strains, growth OD, locus YJL154C, strain vps35
In all, about 5,500 compounds went through this assay and about 2,000 (36%) were called active. Inconclusive results (about 18%) are left out. Cut-off read from the data, not from the text of the source: active = normalized growth mostly below about 0.91 (no sharp cut-off); inconclusive = no clear call, values can overlap the other calls; inactive = mostly above about 0.92. The list shows a part of the results.
Please answer using one outcome listed in true (1) = active, false (0) = inactive

Use the examples below as a reference point.
compound: C=CCS(=O)C[C@H](N)C(=O)O (some centres undefined)
assigned-label: false (0)

compound: CC1OC(O[C@H]2/C=C/C=C/C=C/C=C/C=C/C=C/C=C/[C@H](C)[C@@H](O)[C@@H](C)[C@H](C)OC(=O)CC(O)CC(O)CCC(O)C(O)CC(O)C[C@]3(O)C[C@H](O)C(C(=O)O)C(C2)O3)C(O)[C@H](N)C1O (some centres undefined)
assigned-label: false (0)

compound: COc1ccc(-c2oc3cc(OC)c(OC)c(OC)c3c(=O)c2OC)cc1
assigned-label: false (0)

For CC(=O)O[C@@H]1CC2C(C)(C)[C@H](O)CC[C@]2(C)C2CC[C@@]3(C)[C@H](c4ccoc4)OC(=O)C4OC43[C@@]21C (some centres undefined) , which call appears in the assay record?
false (0)

Moving on to COC(=O)[C@@H]1OC(=O)C2OC23[C@@]1(C)CCC1[C@]2(C)C(C[C@@H](O)[C@]13C)C(C)(C)[C@H](OC(C)=O)C[C@@H]2OC(C)=O (some centres undefined)
false (0)

Moving on to CC(=O)O[C@@H]1CC2C(C)(C)[C@@H](O)CC[C@]2(C)C2CC[C@@]3(C)[C@H](c4ccoc4)OC(=O)[C@H]4O[C@]43[C@@]21C (some centres undefined)
false (0)

Moving on to COc1ccc(-c2oc3cc(OC)c(OC)c(OC)c3c(=O)c2OC)cc1OC
false (0)

Moving on to CC1C/C=C/C=C/C=C/C=C/C(O[C@@H]2O[C@H](C)[C@@H](O)[C@H](N)[C@@H]2O)CC2OC(O)(CC(O)CC3OC3/C=C/C(=O)O1)CC(O)C2C(=O)O (some centres undefined)
false (0)

Moving on to CCC(=O)OC1[C@@H]2CC3=C4CC(=O)O[C@@H](c5ccoc5)[C@]4(C)CCC3[C@@](C)(C2=O)[C@@H](CC(=O)OC)C1(C)C (some centres undefined)
false (0)

Moving on to Nc1nc(F)nc2c1ncn2[C@@H]1O[C@H](COP(=O)(O)O)[C@@H](O)[C@@H]1O
false (0)

Moving on to CC(=O)O[C@H]1C[C@@H](OC(C)=O)C(C)(C)C2C[C@@H](OC(C)=O)[C@]3(C)C(CC[C@@]4(C)[C@H](c5ccoc5)OC(=O)[C@H]5O[C@]543)[C@]21C (some centres undefined)
false (0)

Moving on to Clc1ccc(C(Cn2ccnc2)OCc2ccsc2Cl)c(Cl)c1 (centres undefined)
true (1)

---

# test-details: chemical genetic growth profiling, strain panel (AID 1159580);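 note: tested at 20 µM; growth read once vehicle control cultures reached saturation at 30 °C; 1 = growth at the plate median or of vehicle wells; lower values mean less growth of the strain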
# measurement-setup: S. cerevisiae deletion strains, growth OD, locus YOR290C, strain snf2, hits give low values
The campaign covered roughly 5,500 compounds. About 2,000 (36%) were called active. Another 18% or so got no clear call; they are omitted. Some of the results follow. Where a SMILES comes first, the peptide text is derived from it.
property-label: normalized growth

compound: C[C@@H]1CC2C3CCC4=CC(=O)C=C[C@]4(C)[C@@]3(F)[C@@H](O)C[C@]2(C)[C@@]1(O)C(=O)CO (stereo partly drawn)
endpoint-result: 1.02 (inactive)

Would you kindly share the measured normalized growth for C[C@H]1C[C@@H](O)[C@]2(O)[C@@]13CC(=O)OC[C@@]2(C)[C@](C)(O)C(=O)C3 ?
0.993 (inactive)

Moving on to CC(=O)N[C@@H](CC(=O)O)C(=O)N[C@@H](CCC(=O)O)C(=O)O (Ac-Asp-Glu-OH)
0.975 (inactive)
